- testMethodNotes: yeast display, Sf9 membrane polyspecificity reagent, FACS + sequencing; frameworks hold sequencing errors
assayReadout: polyreactivity (PSR sort gate)

sequencestring=QVQLVESGGGLVQAGGSLRLSCAASGRIFPVYAMGWYRQATGKERELVATISYSGSSTYYADSVKGRFTISRDNAKNTVYLQMNSLKPEDTAVYYCNADAFGPPGVQYYYWGQGTQVTVSS valueobserved="low polyreactivity"
sequencestring=QVQLVESGAGLVHAGGSLRLSCAASGLIYVNAMGWYRQAPGKERDFVAAITYSTGSTYYADSVKGRYTISRDNAKNTVYLQMNSLKPEDSAVYYCATDEHSSGRTPYDYWVQGTQVTVSS valueobserved="low polyreactivity"
sequencestring=QVQLVESGGGLVQAGGSLRLSCAASGRTFRYYAMGWYRQAPGKERELVAAISWSGVRTYYADSVKGRFTISRDNSKNTVYLQMNSLKPEDTAVYYCAKGGYWGQGTQVTVSS valueobserved="high polyreactivity"
sequencestring=QVQHVESGGGLVQAGGSLRLSCAASGRTFTRYTMGWYRQAPGKERELVAAIRFSGGSTYYADSVKGRFTISRDNAKNTVYLQMNSLKPEDTAVYYCAATGGWYKHWFDYWGQGTQVTVSS valueobserved="low polyreactivity"
sequencestring=QVHLVESGGGLVQAGGSLRLSCAASGRTFIENAMGWYRQAPGKERELVAAIFSGGSTYYADSVKGRFTISRDNAKKTVDLQLNSLKPEDTAVYYCDARFARYDWSMYYWGQGTQVTVSS valueobserved="low polyreactivity"
sequencestring=QVQLVESGGGLVQAGGSLRLSCAASGRIGKYAMGWYRQAPGKERELVATISSTGTTNYADSVKGRFTISRDNAKNTVYLQMNSLKPEDTAVYYCAADKPSYRTLSWGGYWGQGTQVTVSS valueobserved="high polyreactivity"
sequencestring=QVQLVESGGGLVQAGGSLRLSCAASGITFLFYARGWYRKAPGKERELVAAISSGDNTYYADSVKGRFTISRDNGKNTVYLQMKSLKPDDTAVYYCAAEKYGYDYWGQGTQVTVSS valueobserved="low polyreactivity"
sequencestring=QVQLVESGGGLVQAGGSLRLSCAASGFIFRDYAMGWYRQAPGKERELVAAISWSSDSTYYADSVKWRFTISRDNAKNTVYLQMNSLKPEDTAVYYCAAKGLRGYWWGFDYWGQGTQVTVSS valueobserved="low polyreactivity"
sequencestring=QVQLVESGGGLVQAGGSLRLSCAASGGTFRSNAMGWYRQAPGKERELVAASTNYADSVKGRFTISRDNAKNTVYLQMNSLKPEDTAVYYCAAGPTDSQSGMDYWGQGTQVTVSS valueobserved="low polyreactivity"
sequencestring=QVQLVESGGGLVQAGGSLRLSCAASGFTFRFYVMGWYRQAPGKERELVAAISSGGGSTYYADSVKGRFTISRDNAKNTVYLQMNSLKPEDTAVYYCNALKVSFLTITKYEYWGQGTQVTVSS valueobserved="high polyreactivity"
sequencestring=QVQLVESGGGLVQAGGSLRLSCAASGFIFSYYAMGWYRQAPGKERELVAAISSGGSTYYADSVKGRFTISRDNAKNTVYLQMNSLKPEDTAVYYCAAAIWYIKLYFVRRTEHGYWGQGTQVTVSS valueobserved="low polyreactivity"
sequencestring=QVQLVESGGGLVQAGGSLRLSCAASGRTIRYYAMGWYRQAPGKERELVAAITVTVTSTFYADSVKGRFTISRDDAKNTVYLQMNSLKPEDTAVYYCAKVDRQSPGQYYYWGQGSQVTVSS valueobserved="low polyreactivity"
sequencestring=QVQLVESGGGLVQAGGSHRLSCAASGRILVRYAMGCYRHAPGKERELVAAISRGGSTTYADSVKGRFTISRDNAKNTVYLQMNSLKPEDTAFYYCAAGRYPYNRDYWGQGTQVTVSS valueobserved="high polyreactivity"
sequencestring=QVQLVESGGGLVQAGGSLRLSCAASGSTFYFYAMGLFRQAPGKERELVAAITSSGGSTYYAESVKGRFTISRDNAKNTVYLQMISQKPEDTAVYYCATTYPQRYNGYDYWGQGTQVTVSS valueobserved="low polyreactivity"
sequencestring=QDQLVESGGGLVQAGGSLRLSCAPSGRTFGGYSMGWYRQAPGKERELVASNTSGGSTYYADSVKGRFTISRDNAKNTVYLQMNSLKPEDTAVYYCAAVTYFETSSRAIPSNDYWGQGTQVTVSS valueobserved="low polyreactivity"
sequencestring=EVQLVESGGGLVQPGGSLRLSCAASGYIYSRYRMGWYRQAPGKGREFVAAISGGSSTTYADSVKGRFTISRDNSKNTVYLQMNSLRAEDTAVYYCAAYKIDSDPRVYWGQGTQVTVSS valueobserved="low polyreactivity"
sequencestring=QVQLVESGGGLVQAGGSLRLSCAASGSIFVYNDMGWYRPAPGKERELVAGIDWSGDRTYADSVKGRFTISRDNAKNTVYLQMNSLKPEDTAVYYCNADEWRWDEIIPYAVDYWGQGTQVTVSS valueobserved="low polyreactivity"
sequencestring=QEQLQESGVGQVQAGGSLLLSCAASGNIIRYYYMGWYRQAPGKERELVAAITYGTSTNYADSVKGRFTISRDNAKNSVYLQINSLKPEDTAVYYCAATAYWFYAKYYYWGQGTQVTVSS valueobserved="high polyreactivity"
sequencestring=QVQHVESGGGLVQAGGRLRLTCPASGSTVGYYAMGWYRQAPGKEREFVATITFGGSTHYADSVKGRFTISRDNAKYTVYLQMNSLKPEDTAFYYCAKRYYTNRHSRAFGYWGQGTQVTVSS valueobserved="high polyreactivity"
sequencestring=QVQLVESGGGLVQAGGSHRLSCAASGITFYGNAMGWYRQAPGKERELVAGITSGGNTYYADSVKGRFTISRDNAKNTVYLQMNSLKPEDTAVYYCAAGYFSYRSYYYYRYDYWGQGTQVTVSS valueobserved="high polyreactivity"
sequencestring=QVQLLESGGGLVQARGSLRLSCAASGRNFVPYVMGWYRQAPGKERELVASISDSDTSTYYADSVKGRFTISRDNAKNTVYLQMNSLKPEDTAVYYCNVDYWGQGTQVTVSS valueobserved="low polyreactivity"

----------
- testMethodNotes: yeast display, Sf9 membrane polyspecificity reagent, FACS + sequencing; frameworks hold sequencing errors
assayReadout: polyreactivity (PSR sort gate)

sequencestring=QVQLVESGRGLVQAGGSLRLSCAVSGSIGVYAMGWYRQAPGKERELVAAISKRGGSTRYADSVKGRFTISRDNAKNTVYLQMNSLKPEDTAVYYCAATGSVTGPRYAYDYWGQGTQVTVSS valueobserved="high polyreactivity"
sequencestring=QVQLVESGGGLVQAGGSLRLSCAASGITFDTYAMGWYRQAPGKERELVAAISKSGGSPYYADSVKARFTISRDNAKNTVYLQMNSLKPEDTAVNYCNARYRHSGRYWDWYYYWGQGTQVTVSS valueobserved="high polyreactivity"

----------
- testMethodNotes: yeast display, Sf9 membrane polyspecificity reagent, FACS + sequencing; frameworks hold sequencing errors
assayReadout: polyreactivity (PSR sort gate)

sequencestring=QVQLVESGGGLVQAGGSLRLSCAASGRILYKYSMGWYRQAPGKERELVAAINRSGGRTYYADSVKGRFTISRDNAKNTVYIQMNSLKPEDTAVYYCAARNPTSYGQFDYLGQGTQVTVSS valueobserved="high polyreactivity"
sequencestring=QVQLVESGGGLVQAGGSLRLSCAASGFTFVRYTMGWYRQSPGKEREMVAAINRSGGNTYYADSVKGRFTISRDNAKNTVYLQMNSLKPEDTAVYYCAAGYYVQVSLKDYYWGQGTQVTVSS valueobserved="high polyreactivity"
sequencestring=QVQLVESGGGLVQAGGSLRLSCAAYGSIFVLNAMGWYRQAPGKERQLVAAITNVGSTYYADSVKGRFTISRDNAKNTVYLQMNSLKPEDTAVYYCNADPGEVLVGYDYWGQGTQVSVSS valueobserved="low polyreactivity"
sequencestring=QVQLQESGGGLEQAGVSLRLSCAASGYISDIGTMGWYRQAPGKEREFVATIVVGSTTNYADSVKGRFTISRDNAKNTVYLQPESGRYRGVLLRGWLLAVGIFTYWGQGTQETVSS valueobserved="low polyreactivity"
sequencestring=QVQLVESGGGLVQAGGSLRLSCAASGFIFPRYFMGLYRQAPGKERELVAAINSDISTNYADSVKWRFTISRDNAKNTVYLQMNSLKPEDTAVYYCAADRWDDPWEFDYWGQCTQVTVSS valueobserved="low polyreactivity"

----------
- testMethodNotes: yeast display, Sf9 membrane polyspecificity reagent, FACS + sequencing; frameworks hold sequencing errors
assayReadout: polyreactivity (PSR sort gate)

sequencestring=QVQLVESGGGLVQAGGRLRLSCAASGRTFTSNAMGWYRQAPGKERELVAAIDDGGSTNYADSVKGRFTISRDNAKNTVYLQMNSLKPEDTAVYYCNAPITWQYRGFRRRFDYWGQGTQVTVSS assayreadout="polyreactivity (PSR sort gate)" valueobserved="low polyreactivity"
sequencestring=QVLLVESGGGLVQAGGSLRLSCAASGITFAYYVMGWYRQAPGKERELVAAINWSGGSTYYADSVKGRFTISRDNAKNTVYLQMNSLKPEDPAVYYCAADWSTWYGEKFYWGQGTQVTVSS assayreadout="polyreactivity (PSR sort gate)" valueobserved="high polyreactivity"
sequencestring=QVQLVESGGGLVQAGGSLRLICAASGSILYYYVMGWYRQAPGKERQLVAAITSGGSTYYADSVKGRFTISRDNAKNNVYLQMNSLKPEDTAVYYCAVRPRRQYSPSRWGTGCYWGQGTQVTVSS assayreadout="polyreactivity (PSR sort gate)" valueobserved="high polyreactivity"
sequencestring=QVQLVESGGGLVQAGGSLRLSCAGSGSTFRYNAMGWYRQAPGKERELVAAISQRGGSTYYADSVKGRFTISRDNANNTVYLQMNSLKPEDTAVYYCPGDYWGQGTQVTVSS assayreadout="polyreactivity (PSR sort gate)" valueobserved="high polyreactivity"
sequencestring=QVQLVESGGGLVQAGGSLRLSCAASGSTFEPYARGWYRQAPGKERELVAAISSSGSTNYADSVKGRFTISRDNAKNTVYLQMNSLKPEDTAVYYCNARRQRSPIEVCERGYWGQGTQVTVSS assayreadout="polyreactivity (PSR sort gate)" valueobserved="high polyreactivity"
sequencestring=QVQLVESGGGLVQAAGSLRLSCASSGSIIFYYAMGWYRQAPGNEREFVAAITRSGVRTYYADSVKGRFTISRDNAKNTVYLQMNSLIPEDTAVYYCIAEAYPYWYRGASREYDYWGQGTQVTVSS assayreadout="polyreactivity (PSR sort gate)" valueobserved="low polyreactivity"
sequencestring=QVQLVESGGCLVQAGGSLRLSCAASGSTFRGNDMGWYRQAPGKEREFVAAITVSGGSTYYADSVKGRFTISRDNAKNTVYLQMNSLKPDDTAVYFCDARYLRYSSKTIQNEDYWGLGTQVTVSS assayreadout="polyreactivity (PSR sort gate)" valueobserved="high polyreactivity"
sequencestring=QVQLVESGGGLVQAGGSLRLSCAASGSIFDWNAMGWYRQAPGKERELVAAIRRGGSTYYADSVKGRFTISRDNAKNTVYLQMNSLKPEDTAVYYCATRFYSRYYILDYDYWGQGTQLTVSS assayreadout="polyreactivity (PSR sort gate)" valueobserved="high polyreactivity"
sequencestring=QVQLVESGGGLVQAGGSLRLSCAASGSIFVSNAMGWYRQAPGKERELVAAITARDVSTYYADSVKGRFTISRDNAKNTVYLQMISLKPEDTAVYYCAGNSSTYPSDDSYVYWGQGTQVTVSS assayreadout="polyreactivity (PSR sort gate)" valueobserved="low polyreactivity"
sequencestring=QVQLVESGGGLVQAGGSLRLTCAASGRTFHGNAMGWYRPAPGKERELVAAISYSGGRTYYADSVKGRFTISRDNAKNTVYLQMNSLKPEDTAVYYCAAWGSSYSFDYWGQGTQVTVSS assayreadout="polyreactivity (PSR sort gate)" valueobserved="high polyreactivity"
sequencestring=QVQLVESGGGLVQAGGSLRLSCAASGHTFAYNAMGWYRQAPGKEREFVAAITWSTDNTYYADSVKGRFTISRDNAKNTVYLQMNSLKPEDTAVYYCAKDAAESYRYGYWGQGTQVTVSS assayreadout="polyreactivity (PSR sort gate)" valueobserved="low polyreactivity"
sequencestring=QVKLEESGGGLLQAGGSLRLSCAASGRIIGDYAMGSYRQAPGKERELVAANDRGGSTHYADSVKGRYTISRDNAKNTFYFQMNSLKPEDTAVYYCNLDVWANIKSRCIFAGWYDYWGQGTQVTVSS assayreadout="polyreactivity (PSR sort gate)" valueobserved="low polyreactivity"
sequencestring=QVQLVESGGGLVQAGGSLRLSCAASGSIFDRYAMGWYRQAPGKERELVASIRQRGGSTYYADSVKGRFTISRDNAKNTVYLQMNSLKPEDTAVYYCAARKYPFRQSTYDYWGQGTQVTVSS assayreadout="polyreactivity (PSR sort gate)" valueobserved="low polyreactivity"
sequencestring=QVQLVESGGGLVQAGGSLRLSCAASGSTFRFYTMGWYRQAPGKERELVATITSGGSTNYADSVKGRFTISRDNAKNTVYLQMNSLKPEDTAVYYCAASSVLTNHDYWGQGTQVTVSS assayreadout="polyreactivity (PSR sort gate)" valueobserved="low polyreactivity"
sequencestring=QVQLVESGGGLVQAGASLRLSCAASGRTFHYYVKGWYRQAPGKERELVAAISRSGGRTYYADSVKGRFTISRDNAKNTVYLQMNSLNPEDTAVYFCAARSGYYYSEGAWRRDYWGQGTQVTLSS assayreadout="polyreactivity (PSR sort gate)" valueobserved="high polyreactivity"
sequencestring=QVQLVESGGGLVQAGGSLRLSCAASGRTFRLYAMGWSRPAPGKERELVAAISSGGSTYYADSVKGRFTISRDNAKNTVYLQMNSLKPEDTAVYYCFAWVYQFGYWGQGTQVTVSS assayreadout="polyreactivity (PSR sort gate)" valueobserved="low polyreactivity"
sequencestring=QVQLVESGGVLDQAGGSLRLSCAAAGITSPDNVMGWYRKAPGKEFDLVAANSGSGGSTYYADYVQGRFTISRDNAKNSVYLQINILKPEDTAVYYCAADVEYKVFPGDYWGQGTQVTVSS assayreadout="polyreactivity (PSR sort gate)" valueobserved="low polyreactivity"
sequencestring=QVQLVESVGGLVQAGGSLGLTCAASGFIFRYYAMGWYRQAPGLERELVAPINASGGRTYYADSVKGRFTISRDNARNTLYLQMNSLKPEDTAVYYCAAYRSYQTFDYWGQGTQVTVSS assayreadout="polyreactivity (PSR sort gate)" valueobserved="high polyreactivity"
sequencestring=QDQLVESGGGIVQAGGSLRLSCAASGSTFWHNVMGWYRQAPGKERELVAAISTAGSSTYYADSVKGRFTISRDHAKNTVYLQMNSLKPEDTAVYYCAAQWPKSKYGYWGQGTQVTVSS assayreadout="polyreactivity (PSR sort gate)" valueobserved="high polyreactivity"
sequencestring=QVQLVESGGGLVQAGGSLRLSCAASGSIFYFNGMGWYRQAPGKERELVAAITWGDGSTYYADSVKGRFTISRDNAKNTVYLQMNSLKREDNAVYYCAAVLLIFKYVPRYDYWGQGTQVTVSS assayreadout="polyreactivity (PSR sort gate)" valueobserved="low polyreactivity"
sequencestring=QVQLVESGGGLVQAGGSLRLSCAASGITFYYNAMGWYRQAPGKERELVAAISDGSSTNYADSVKGRFTISRDTAKNTVYLQMNSLKPEDTAVYYCNADLVLFPLTWPYYYWGQGTQVTVSS assayreadout="polyreactivity (PSR sort gate)" valueobserved="low polyreactivity"
